test name: Plasma stability, mouse plasma
Assay type: in vitro ADME
particulars: 37° C., sampled up to 240 min
Bridge positions count the residues as written; N and C are the ends. Square brackets hold non-standard residues; d marks the D form. Peptide text beside a SMILES is read from it. Cha = N[C@@H](CC1CCCCC1)C(=O)O; Orn = NCCC[C@H](N)C(=O)O
This section presents molecules with their documented Plasmastability mouse pl. T1/2 values.
measured property: Plasmastability mouse pl. T1/2 (h)

molecule="CC(C)C[C@@H]1NC(=O)[C@@H]2CSSC[C@H](NC(=O)[C@H](CC(=O)O)NC(=O)[C@@H]3CCCN3C(=O)[C@@H](CO)NC1=O)C(=O)N[C@@H](Cc1ccccc1)C(=O)N[C@@H](Cc1c[nH]c3ccccc13)C(=O)N[C@@H](CCCCN)C(=O)N[C@@H](Cc1ccc(O)cc1)C(=O)N2 [Ex. 28]" measured_property="Plasmastability mouse pl. T1/2" obs_value=4
molecule="CC(C)C[C@@H]1NC(=O)[C@@H]2CSSC[C@H](NC(=O)[C@H](CC(=O)O)NC(=O)[C@@H]3CCCN3C(=O)[C@H]3CCCN3C1=O)C(=O)N[C@@H](Cc1ccc(O)cc1)C(=O)N[C@@H](Cc1c[nH]c3ccccc13)C(=O)N[C@@H](CCCCN)C(=O)N[C@@H](Cc1ccc(O)cc1)C(=O)N2 [compound 33]" measured_property="Plasmastability mouse pl. T1/2" obs_value=4
molecule="NCCCC[C@@H]1NC(=O)[C@H](Cc2c[nH]c3ccccc23)NC(=O)[C@H](Cc2ccccc2)NC(=O)[C@@H]2CSSC[C@H](NC(=O)[C@H](Cc3ccc(O)cc3)NC1=O)C(=O)N[C@@H](CC1CCCCC1)C(=O)N1CCC[C@@H]1C(=O)N1CCC[C@H]1C(=O)N[C@@H](CC(=O)O)C(=O)N2 [compound 35] (cyclo(DCFWKYC[Cha][dP]P); disulfide 2-7)" measured_property="Plasmastability mouse pl. T1/2" obs_value=4
molecule="CC(C)[C@@H]1NC(=O)[C@@H]2CSSC[C@H](NC(=O)[C@H](CC(=O)O)NC(=O)[C@@H]3CCCN3C(=O)[C@H]3CCCN3C1=O)C(=O)N[C@@H](Cc1ccccc1)C(=O)N[C@H](Cc1c[nH]c3ccccc13)C(=O)N[C@@H](CCCN)C(=O)N[C@@H](Cc1ccc(O)cc1)C(=O)N2 [compound 32] (cyclo(DCF[dW][Orn]YCV[dP]P); disulfide 2-7)" measured_property="Plasmastability mouse pl. T1/2" obs_value=4
molecule="CC(C)C[C@@H]1NC(=O)[C@@H]2CSSC[C@H](NC(=O)[C@H](CC(=O)O)NC(=O)[C@@H]3CCCN3C(=O)[C@@H](CCC(=O)O)NC1=O)C(=O)N[C@@H](Cc1ccccc1)C(=O)N[C@@H](Cc1c[nH]c3ccccc13)C(=O)N[C@@H](CCCCN)C(=O)N[C@@H](Cc1ccc(O)cc1)C(=O)N2 [compound 30]" measured_property="Plasmastability mouse pl. T1/2" obs_value=4
molecule="CC(C)[C@@H]1NC(=O)[C@@H]2CSSC[C@H](NC(=O)[C@H](CC(=O)O)NC(=O)[C@@H]3CCCN3C(=O)[C@H]3CCCN3C1=O)C(=O)N[C@@H](Cc1ccccc1)C(=O)N[C@H](Cc1c[nH]c3ccccc13)C(=O)N[C@@H](CCCCN)C(=O)N[C@@H](Cc1ccc(O)cc1)C(=O)N2 [compound 34]" measured_property="Plasmastability mouse pl. T1/2" obs_value=4
molecule="CC(C)[C@@H]1NC(=O)[C@@H]2CSSC[C@H](NC(=O)[C@H](CC(=O)O)NC(=O)[C@@H]3CCCN3C(=O)[C@H]3CCCN3C1=O)C(=O)N[C@@H](Cc1ccccc1)C(=O)N[C@@H](Cc1c[nH]c3ccccc13)C(=O)N[C@@H](CCCCN)C(=O)N[C@@H](Cc1ccc(O)cc1)C(=O)N2 [compound 31]" measured_property="Plasmastability mouse pl. T1/2" obs_value=4
